The origin of these recorded values is patent US10760052B2.

Listed here are molecules together with their documented % DAMGO + BFNA.
target.desc: mu opiate receptor (MOR) (Rattus norvegicus, UniProt P33535)
Construct: from tissue; host or cells: striatum (membrane preparation)
Sequence (P33535 whole entry): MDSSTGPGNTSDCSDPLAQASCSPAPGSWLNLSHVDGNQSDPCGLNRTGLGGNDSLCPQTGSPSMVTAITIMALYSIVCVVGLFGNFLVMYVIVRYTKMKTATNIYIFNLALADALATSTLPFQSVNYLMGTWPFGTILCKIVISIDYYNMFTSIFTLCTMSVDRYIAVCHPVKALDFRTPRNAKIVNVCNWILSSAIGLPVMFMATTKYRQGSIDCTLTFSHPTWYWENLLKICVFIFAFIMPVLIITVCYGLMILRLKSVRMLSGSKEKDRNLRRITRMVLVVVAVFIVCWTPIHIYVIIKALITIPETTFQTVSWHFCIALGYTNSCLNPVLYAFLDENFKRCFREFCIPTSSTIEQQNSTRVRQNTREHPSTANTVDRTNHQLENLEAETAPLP
Format: biochemical
Number only, in %; omit the unit.

Readout % DAMGO + BFNA for CC1CCC(C(C)C)C(OCC(O)CN(C(C)C)C(C)C)C1 (stereo not drawn) , test system mu opiate receptor (MOR) (Rattus norvegicus, UniProt P33535), was 141.5

Readout % DAMGO + BFNA for O=S(=O)(c1ccc(F)cc1)N1CCC2(CC1)OCCN2S(=O)(=O)c1ccc(F)cc1 , test system mu opiate receptor (MOR) (Rattus norvegicus, UniProt P33535), was 37.8

Readout % DAMGO + BFNA for OC(COc1ccc(Br)c(F)c1)CN1CCCCC1 (stereo not drawn) , test system mu opiate receptor (MOR) (Rattus norvegicus, UniProt P33535), was 150.1

Readout % DAMGO + BFNA for COc1ccc(OC)c(CCC(=O)CC2c3c(cc4c(c3OC)OCO4)CC[N+]2(C)C)c1 (stereo not drawn) , test system mu opiate receptor (MOR) (Rattus norvegicus, UniProt P33535), was 511.8

Readout % DAMGO + BFNA for O=C(c1ccc([N+](=O)[O-])cc1)N1CCC2(CC1)OCCN2C(=O)c1ccc([N+](=O)[O-])cc1 , test system mu opiate receptor (MOR) (Rattus norvegicus, UniProt P33535), was 248.2

More entries:
Readout % DAMGO + BFNA for CC1CN(CC(O)COc2cccc(N(C)C)c2)CC(C)O1 (stereo not drawn) , test system mu opiate receptor (MOR) (Rattus norvegicus, UniProt P33535), was 121.1

Readout % DAMGO + BFNA for CC(=O)c1ccc(S(=O)(=O)N2CCC3(CC2)NCC(=O)N3Cc2ccccc2)cc1 [Compound C0082M] , test system mu opiate receptor (MOR) (Rattus norvegicus, UniProt P33535), was 181.1

Readout % DAMGO + BFNA for CC1CCC(C(C)C)C(OCC(O)CN2CCc3ccccc3C2)C1 (stereo not drawn) , test system mu opiate receptor (MOR) (Rattus norvegicus, UniProt P33535), was 22.6

Readout % DAMGO + BFNA for CC1CCC(C(C)C)C(OCC(O)CN2CCSC2)C1 (stereo not drawn) , test system mu opiate receptor (MOR) (Rattus norvegicus, UniProt P33535), was 24.5
